A compilation of pKi values for Proto-oncogene tyrosine-protein kinase Src (Homo sapiens, UniProt P12931) from the published literature.
pKi is defined as minus the log10 of a concentration measured in mol/L.

Reference set, count: 2
Please tell me: pKi of "Cc1cc(Nc2nccc(-c3nc(C)c(CCO)s3)n2)cc(C(F)(F)F)c1" , system Proto-oncogene tyrosine-protein kinase Src (Homo sapiens, UniProt P12931)?
5.46

Please tell me: pKi of "COc1cc2ncc(C#N)c(N[C@@H]3C[C@H]3c3ccccc3)c2cc1OCc1ccccc1" , system Proto-oncogene tyrosine-protein kinase Src (Homo sapiens, UniProt P12931)?
6.48

More entries:
Please tell me: pKi of "N#Cc1cnc2ccc(-c3cccc(CN4CCOCC4)c3)cc2c1N[C@@H]1C[C@H]1c1ccccc1" , system Proto-oncogene tyrosine-protein kinase Src (Homo sapiens, UniProt P12931)?
6.55

Please tell me: pKi of "Cc1nc(Nc2n[nH]c3c2CN(C(=O)N[C@H](CN(C)C)c2ccccc2)C3(C)C)c2sccc2n1" , system Proto-oncogene tyrosine-protein kinase Src (Homo sapiens, UniProt P12931)?
7.49

Please tell me: pKi of "Cc1cc(C)cc(Nc2nccc(-c3nc(CO)cs3)n2)c1" , system Proto-oncogene tyrosine-protein kinase Src (Homo sapiens, UniProt P12931)?
5.65

Please tell me: pKi of "COc1ccc2ncc(C#N)c(N[C@@H]3C[C@H]3c3ccccc3)c2c1" , system Proto-oncogene tyrosine-protein kinase Src (Homo sapiens, UniProt P12931)?
6.68

Please tell me: pKi of "Cc1cc(C)cc(Nc2nccc(-c3ncc(CO)s3)n2)c1" , system Proto-oncogene tyrosine-protein kinase Src (Homo sapiens, UniProt P12931)?
5.70
